assay: Pharmacokinetic evaluation of plasma levels of theophylline after oral dosing; type: in vivo, A/J mice; details: A/J, mouse, plasma; oral dose 1 mg/kg, 60 minutes post dosing, mean ± SD
quantity: concentration at 60 min
Give me the value, and tack the unit on after it.

Task: Field request: concentration at 60 min | item: Cn1c(=O)c2[nH]cnc2n(C)c1=O [Theophylline]
Result: 410 ng/mL

---

assay: Pharmacokinetic evaluation of plasma levels of theophylline after oral dosing; format: in vivo, A/J mice; details: A/J, mouse, plasma; oral dose 1 mg/kg, 240 minutes post dosing, mean ± SD
quantity: concentration at 240 min (ng/mL)
One number for each entry, in ng/mL.

Task: Field request: concentration at 240 min | item: Cn1c(=O)c2[nH]cnc2n(C)c1=O [Theophylline]
Result: 60
